src = the supplement of paper PMC9170038

- Tested on: MS2 coat protein
- assay-explanation: apparent KD of MS2 coat protein; designed switch direction (-1 OFF switch, 1 ON switch): -1; higher = weaker reporter binding
- particulars: Eterna round: R95; input ligand: microRNA oligo, concentration not stated
# apparent KD of MS2 coat protein per entry
measured-attribute: apparent KD of MS2 coat protein (nM)

1. UUUUAGAGAGGAUAUACAUUUUUUUAUUUAUUUAUAAUAUUACAUGAGGAUCACCCAUGUAGAAGGCUCAUUUU [My Design] (puzzle: Exclusion 2) : 25.8
2. CAGUACUGAGGAUAUACAUGAGGAUCACCCAUGUGUCCUAGCUAGGAUACUAGCAUUAGUAGAAGGCAGUACUG [Fiskers Ex 3 828 mod 7] (puzzle: Exclusion 3) : 19.8
3. UCAUGGUAGCAGGAUAUGCUUGUUUAAUUUUUUGCAGAAGGGCUAACAUGAGGAUCACCCAUGUGAGAGGUCUA [JR_E6_Sub065] (puzzle: Exclusion 6) : 64.3
4. GAAAAGGUAGGAUAUAUGAAAAAAAAGGGUAGAAAAAAAACACAUGAGGAUCACCCAUGUAGAAGGACCAAAAG [salish99_ex2_r3_056] (puzzle: Exclusion 2) : 46.3
5. AAGAAACAUGAGGAUCACCCAUGUGAGGAUAUGAUAAAGAAAAGAAAAGAAAGAAGACUCAGAAGGCACAAAGG [salish99-ex1_r3_041] (puzzle: Exclusion 1) : 26.7
